system: HOP-92 NSCLC; test: NCI tumour cell line growth inhibition, 48 h
# TGI values compiled below
State the answer as a number, implicitly in µM.

item-smiles	TGI (µM)
Cc1nc2ccccc2c(=O)n1/N=C(\N=Nc1cccc(Cl)c1)c1ccccc1Cl	58.5
O=C(O)COc1ccc(C(=O)/C(SS/C(C(=O)c2ccc(OCC(=O)O)c(Cl)c2Cl)=C2\C=C(c3ccc(Br)cc3)SS2)=C2/C=C(c3ccc(Br)cc3)SS2)c(Cl)c1Cl	16
Cc1cc(NC(=O)c2cnc(N3CCN(CCOCCOCCOCCOCCC(=O)N[C@H](C(=O)N4C[C@H](O)C[C@H]4C(=O)N[C@@H](C)c4ccc(-c5scnc5C)cc4)C(C)(C)C)CC3)cn2)c2ncccc2c1	9.37
O=[N+]([O-])c1ccc2c(Nc3ccccc3-c3ccccc3Nc3c4ccccc4nc4cc([N+](=O)[O-])ccc34)c3ccccc3nc2c1	24.4

Now look at this one.
Problem: API: value(readout=TGI, system=HOP-92 NSCLC) for record CCSc1nc(N)c(C#N)c(-c2ccco2)c1C#N
Solution: 45.5

---

Measured TGI, listed per entry for reference.
system: A549 NSCLC; test: NCI tumour cell line growth inhibition, 48 h

>>> df
                                   compound  metric_name  reported
0  O=C(Nc1ccccc1Cl)c1cccc(NC2=C(Cl)C(=O)N(Cc3ccccc3)C2=O)c1          TGI  > 100 µM
1  Nc1ccc(C(=O)N/C(=C\c2cccc([N+](=O)[O-])c2)c2nc3ccc(Cl)cc3[nH]2)cc1          TGI  > 100 µM
2  COc1cc(OC)cc(-n2c(N)c(-c3nc4ccccc4n3C)c3ccc([N+](=O)[O-])cc3c2=O)c1          TGI  > 100 µM

Problem: Requested field: TGI. Item: O=C(O)c1cc(Cl)cc2c1NC1(N2)C(=O)Nc2ccccc21 (stereo unspecified)
Solution: > 100 µM

Problem: And what about the compound COCCOCOC(C)(C)[C@H](CCOC(C)=O)O[Si](c1ccccc1)(c1ccccc1)C(C)(C)C ?
Solution: > 100 µM

Problem: Can you check S=C(N/N=C\c1ccccn1)N(Cc1ccccn1)Cc1ccccn1 next?
Solution: > 42 µM

Problem: Quick one: Cc1cc(S(=O)(=O)Nc2nc3ccccc3n2-c2ccccc2)c(S)cc1Cl
Solution: > 100 µM

Problem: Same for CC/C=C\C/C=C/C=C1/C(=O)C=C[C@@H]1C/C=C\CCCC(=O)OC
Solution: 52.6 µM

Problem: Queued: CC1(C)CCCCCCCCCC(C)(CCCCCCCCCCCCO)C1=O (stereo unspecified)
Solution: 29.9 µM

Problem: Same read-out for O=c1c(-c2ccccc2)coc2cc(OC/C(=N/O)c3ccc(F)cc3)ccc12 ?
Solution: 35.9 µM

Problem: Param item: O=c1[nH]c2cc3cccnc3c(Cl)c2nc1CBr
Solution: 38.8 µM

---

system: NCI-H522 lung; assay: NCI tumour cell line growth inhibition, 48 h
Use TGI to assign classes; range list: lower band: < 3 µM; central band: ≥ 3 µM and < 20 µM; upper band: ≥ 20 µM

Examples from the recorded data:
compound	group-label
CCN(CC)CCCC(C)Nc1c(Sc2cnc3cc(Cl)ccc3c2NC(C)CCCN(CC)CC)cnc2cc(Cl)ccc12 (configuration not stated)	central band
CCCCCn1c(=O)c2c(=O)[nH][nH]c2c2ccccc21	upper band
C=C1C(=O)O[C@H]2[C@H]1CC/C(CNC(=O)/C=C/c1ccccc1)=C\CC[C@@]1(C)O[C@@H]21	lower band
C=C1CC[C@@H]2[C@](C)(COC(C)=O)[C@H](OC(C)=O)CC[C@@]2(C)[C@@H]1CC(Nc1ccc(S(=O)(=O)Nc2nccs2)cc1)C1=CCOC1=O (some centres not stated)	central band
COc1ccc2c(c1)C(=O)c1c-2c(N2CCNCC2)nc2ccccc12	central band
CCN1CCCC(Nc2cc(C)nc(/N=C(/N)Nc3ccc(Cl)c(Cl)c3)n2)C1 (configuration not stated)	lower band
O=C1/C(=C/c2cccc(Br)c2)COc2ccc(O)c(O)c21	lower band
CCN(C(=O)CN1CCN(c2cc3c(cc2F)c(=O)c(C(=O)O)cn3CC)CC1)c1nc(-c2ccccc2)cs1	lower band

Problem: Which bin should I file C=CCC1(CC)C(=O)NC(=O)NC1=O under?
Solution: upper band

Problem: Also, Cc1cc(S(=O)(=O)Nc2nc3ccccc3n2-c2ccccc2)c(S)cc1Cl please.
Solution: upper band

Problem: Now try NNc1c2ccccc2nc2ccccc12 .
Solution: central band

Problem: And CC(=O)OC(C)C(OC(C)=O)C(OC(C)=O)C(/C=C/C1CC=CC(=O)O1)OC(C)=O (configuration not stated) ?
Solution: upper band

Problem: What do you get for O=c1c(-c2ccccc2)coc2cc(OC/C(=N/O)c3ccc(F)cc3)ccc12 ?
Solution: upper band

Problem: # iterate: O=C(Nc1cnc(C(F)(F)F)cn1)c1cc(Cl)ccc1O
Solution: lower band

Problem: Try the compound CC1=C(C(=O)Nc2ccc(F)c(Cl)c2)C(c2ccccc2O)NC(=O)N1 (configuration not stated)
Solution: upper band

Problem: Can you check Cc1occ2c1C(=O)CC1C2[C@@H](O)CC2C(C)(C)CCC[C@]12C (some centres not stated) next?
Solution: upper band

Problem: Note, next up: Cc1ccnc(NC(=S)Nc2cccc(Cl)c2)c1
Solution: central band

Problem: Also COc1cc(/C=C\c2ccncc2)cc(OC)c1OC , if possible.
Solution: upper band

Problem: Also check Cc1cc(C)nc(NS(=O)(=O)c2ccc(NC(=O)c3cccn4c(=O)c5ccccc5nc34)cc2)n1
Solution: upper band
